Source: the supplement of paper PMC9732359

// values below are reported protein stability index
assay: protein stability index of a GFP-peptide fusion (yeast GPS) (PSI 1-4); higher = more stable; sorted into four equal gates, so the index is relative within each strain; conditions: pdr5∆
Please state the value as a number alone, without comment.

Consider the worked cases shown below.
chain="YTVNVVDVFAMPQSGTG [RPN11]" quantitative_result=3.28
chain="LPKFLTVQYVRFFWKRS [UBP6]" quantitative_result=1.35
chain="SKSMKFSRRFDCRDVYC [CSN9]" quantitative_result=2.64
chain="DRVVSSDSLDIAQGIDL [SRP72]" quantitative_result=2.6
chain="YLAKLSKQLSLEEKKKR [IRR1]" quantitative_result=2.75
chain="KDLFELERYYKEQADIY [ARP7]" quantitative_result=3.34
chain="TPMDESSYDLLFNESFI [SRP72]" quantitative_result=2.98
chain="ASLDGTIRLWECGTGTT [RPN14]" quantitative_result=2.91

Enquiry: What protein stability index value was documented for this sequence, NTPLVGAAFKVISNLVP [YJL039C/NUP192] ?
Return: 2.08

Enquiry: What protein stability index value was documented for this sequence, ENQPFHGIKDIPIGHVH [AAR2] ?
Return: 2.98

Enquiry: What protein stability index value was documented for this sequence, ANDFQLTIVTCKQFPKL [SRB8] ?
Return: 1.96

Enquiry: What protein stability index value was documented for this sequence, DKVSSCFPQYVNSKQGA [NNF1] ?
Return: 2.23

Enquiry: What protein stability index value was documented for this sequence, SYEKNEDHVEDHRKRKK [LIN1] ?
Return: 3.36

Enquiry: What protein stability index value was documented for this sequence, EHASLLVRDSKPSKPFN [MED8] ?
Return: 2.67

----------
assay: protein stability index of a GFP-peptide fusion (yeast GPS) (PSI 1-4); higher = more stable; sorted into four equal gates, so the index is relative within each strain; conditions: doa10∆
measured_attribute: protein stability index
Please state the value as a number alone, without comment.

Consider the worked cases shown below.
chain="IIKLVEGLANDPENKVP [RPS12]" quantitative_result=2.01
chain="DLSANQRETMKERKLRE [SMC1]" quantitative_result=3.3
chain="TKFNHNKEKSNSPTSFF [YOR098C/NUP1]" quantitative_result=2.78
chain="NEVYSAYVVNDTAPKPN [DLS1]" quantitative_result=3.47
chain="KCTAEGIKVSLLGIFDD [RPC25]" quantitative_result=2.19

Enquiry: What protein stability index value was documented for this sequence, FLYVLIPAGIYWYWWKN [QCR8] ?
Return: 1.93

Enquiry: What protein stability index value was documented for this sequence, LEASYSKSYTPRKLVLS [SMC4] ?
Return: 2.31

Enquiry: What protein stability index value was documented for this sequence, ISTGGFMSNDGPTLEKY [SNU114] ?
Return: 2.22

Enquiry: What protein stability index value was documented for this sequence, ELDTASRILKAQSRNVE [YGR119C/NUP57] ?
Return: 2.35

Enquiry: What protein stability index value was documented for this sequence, NRLEIKYHNDLIEKEIQ [SMC1] ?
Return: 2.35

Enquiry: What protein stability index value was documented for this sequence, HSLAYLLENFANFKTSK [RRP6] ?
Return: 2.68

Enquiry: What protein stability index value was documented for this sequence, AAIKDLDDFGEEELFEV [RRP43] ?
Return: 2.46

Enquiry: What protein stability index value was documented for this sequence, TEKLSNGFSFTKFNHNK [YOR098C/NUP1] ?
Return: 3.02

Enquiry: What protein stability index value was documented for this sequence, ECQVIAAEGLCKLFLAD [YCG1] ?
Return: 3.29

----------
assay: protein stability index of a GFP-peptide fusion (yeast GPS) (PSI 1-4); higher = more stable; sorted into four equal gates, so the index is relative within each strain; details: ubr1∆
measured_attribute: protein stability index

Consider the worked cases shown below.
chain="HKVTQKKDIKIGTNDLF [SIR4]" measured_attribute="protein stability index" result=2.27
chain="LPSGVLSRGDDEVTIRR [SMC3]" measured_attribute="protein stability index" result=3.27
chain="KGLVSQQLDSFNQFVDY [RPB2]" measured_attribute="protein stability index" result=2.6

Enquiry: What protein stability index value was documented for this sequence, VLARISPELSLQRHLSL [RRP43] ?
Return: 2.47

Enquiry: What protein stability index value was documented for this sequence, IFNGETLEDALRRIITD [GRR1] ?
Return: 2.07

Enquiry: What protein stability index value was documented for this sequence, AQKCGWTIPHKKWNDLK [SIR2] ?
Return: 2.94

----------
assay: protein stability index of a GFP-peptide fusion (yeast GPS) (PSI 1-4); higher = more stable; sorted into four equal gates, so the index is relative within each strain; settings: san1∆
measured_attribute: protein stability index
Please state the value as a number alone, without comment.

chain="SNSTPNANQQFLPFNNS [SWI1]" measured_attribute="protein stability index" quantitative_result=2.96

Enquiry: What protein stability index value was documented for this sequence, AAVIALGFVLLRDYTTV [RPN2] ?
Return: 1.22

Enquiry: What protein stability index value was documented for this sequence, EDETLRRIKEAEENLKK [YIL149C/MLP2] ?
Return: 3.26

Enquiry: What protein stability index value was documented for this sequence, AVGNLGNAVTVTEDGTV [RPL22A] ?
Return: 2.22

Enquiry: What protein stability index value was documented for this sequence, KMPGGFTITVARKYLQT [FAS2] ?
Return: 1.21

Enquiry: What protein stability index value was documented for this sequence, TRRKRRQGRSNRRGMLA [SNF5] ?
Return: 2.86

----------
test: protein stability index of a GFP-peptide fusion (yeast GPS) (PSI 1-4); higher = more stable; sorted into four equal gates, so the index is relative within each strain; settings: doa10∆
measured_attribute: protein stability index

chain="KLNKVDKNELQQMIITR [SIR3]" result=3.12
chain="QGGFYKQQDAEELFTQL [UBP6]" result=3.38
chain="MFIEEPTRMVRVAKGSG [SRP54]" result=3.09
chain="EQEQQQQQIIKIRITLT [RPS20]" result=2.77
chain="ILERAYKKLDIDGKVIQ [SNF2]" result=3.16
chain="PISAVLRGCKFLQSVDI [GRR1]" result=2.08
chain="GRNLGRIGTIVHKERHD [RPS4A]" result=2.42
chain="ITFLIEKAKEMIRLLGS [ECM29]" result=2.6
chain="ISIKDNKLVMKSKFNKS [GAL11]" result=2.51
chain="TPLKARQREMAEEQTKL [YLR018C/POM34]" result=3.33

Enquiry: What protein stability index value was documented for this sequence, PIMFQDFDDSTAQEINF [IRR1] ?
Return: 2.81

Enquiry: What protein stability index value was documented for this sequence, FSQKEMAFNLLGLLTPE [FAS2] ?
Return: 2.52

Enquiry: What protein stability index value was documented for this sequence, FSHLAGGKIINKLGNDP [BRR2] ?
Return: 2.94

Enquiry: What protein stability index value was documented for this sequence, KQVQDFEENDHPNRVLE [COR1] ?
Return: 3.1

----------
test: protein stability index of a GFP-peptide fusion (yeast GPS) (PSI 1-4); higher = more stable; sorted into four equal gates, so the index is relative within each strain; details: doa10∆
// values below are reported protein stability index
Please state the value as a number alone, without comment.

Consider the worked cases shown below.
chain="VRYTTSVMPPNEVYSAY [DLS1]" quantitative_result=2.83
chain="TRLKSLLKPFHVKVNDK [SIR3]" quantitative_result=2.65
chain="KKDSKPAFSFGISNGSE [YLR335W/NUP2]" quantitative_result=3.16
chain="PQQNKTPFSFGTANNNS [YJL041W/NSP1]" quantitative_result=3.28
chain="EYGKHDFKNEESLSEEH [MED8]" quantitative_result=3.3
chain="YENKDNLTAGIIVAGYD [PRE3]" quantitative_result=2.71
chain="IRVLFKENGQLIGAATK [SEC65]" quantitative_result=1.97
chain="LSSAGAKSTVETFISSM [RIP1]" quantitative_result=3.08
chain="IMECCQKNDTAAFKDIA [RRP40]" quantitative_result=3.08
chain="SKSMKFSRRFDCRDVYC [CSN9]" quantitative_result=2.7

Enquiry: What protein stability index value was documented for this sequence, TCAGGRLFNVVVQDSQT [SMC2] ?
Return: 2.84

Enquiry: What protein stability index value was documented for this sequence, ENIEPLDPINLPLDSQD [PRP8] ?
Return: 2.87

Enquiry: What protein stability index value was documented for this sequence, QAIITERLVEFSNVNEL [YIL149C/MLP2] ?
Return: 2.72

Enquiry: What protein stability index value was documented for this sequence, HRDKNKMDMICRNINRK [DIS3] ?
Return: 2.32

Enquiry: What protein stability index value was documented for this sequence, QIVSYCSNNKNSIKNVP [SSN2] ?
Return: 1.65

Enquiry: What protein stability index value was documented for this sequence, ENGTLLVPPPRTIANQD [RPR2] ?
Return: 3.01

Enquiry: What protein stability index value was documented for this sequence, QNENLPSDKSDSMVDKE [SSN2] ?
Return: 3.07

Enquiry: What protein stability index value was documented for this sequence, PKNIEPPLTSQYSTRHD [SWI3] ?
Return: 3.07

Enquiry: What protein stability index value was documented for this sequence, ALERNWPIVNSKVYFNN [RPN12] ?
Return: 1.93

Enquiry: What protein stability index value was documented for this sequence, ELENFLDNFETKTEALL [YJL041W/NSP1] ?
Return: 2.62

Enquiry: What protein stability index value was documented for this sequence, GSLARAGKVKSQTPKVE [RPS30A] ?
Return: 2.71

Enquiry: What protein stability index value was documented for this sequence, TDVEKSDPAAKKTATEP [SRP21] ?
Return: 3.2

Enquiry: What protein stability index value was documented for this sequence, NKENDNVPSTKFNAAPE [SNF12] ?
Return: 3.38

Enquiry: What protein stability index value was documented for this sequence, EHNPSAHTASVGVVFGS [COR1] ?
Return: 3.21

Enquiry: What protein stability index value was documented for this sequence, FELSFTGAPPYYYNTKI [YMR129W/POM152] ?
Return: 2.75

Enquiry: What protein stability index value was documented for this sequence, VQDALLTNQLYKNHELL [SNF2] ?
Return: 3.19

Enquiry: What protein stability index value was documented for this sequence, EEAGSPLVYRHELITNI [RPB9] ?
Return: 3.17
